TARGET OR TEST SYSTEM: human melanocortin receptor subtype 5 (hMC5-R) (human)
PROTOCOL TEXT: [125I]-NDP-α-MSH competition, membranes
Binary label based on Ki with cut-off 2000 nM: below gives Satisfied, not below gives Not satisfied.

SUBSTANCE: Hydantoin(C(O)-(Gly-D-Arg))-c(Cys-Glu-His-D-Phe-Arg-Trp-Cys)-NH2 (peptide)
QUALITATIVE LABEL: Not satisfied

SUBSTANCE: Hydantoin(C(O)-(D-Ala-Nle))-c(Cys-D-Ala-His-D-Phe-Arg-Trp-Cys)-NH2 (peptide)
QUALITATIVE LABEL: Satisfied

SUBSTANCE: Hydantoin(C(O)-(D-Arg-Gly))-c(Cys-D-Ala-His-D-Phe-Arg-Trp-Cys)-NH2 (peptide)
QUALITATIVE LABEL: Satisfied

SUBSTANCE: Hydantoin(C(O)-(D-Arg-Gly))-c(Cys-Glu-His-D-Phe-Arg-Trp-Cys)-NH2 (peptide)
QUALITATIVE LABEL: Not satisfied

SUBSTANCE: Hydantoin(C(O)-(D-Ala-Gly))-c(Cys-D-Ala-His-D-Phe-Arg-Trp-Cys)-NH2 (peptide)
QUALITATIVE LABEL: Satisfied

###

Reported cAMP EC50 values follow for various substances
TARGET OR TEST SYSTEM: hMC1-R (human) (UniProt Q01726)
Sequence (Q01726 whole entry): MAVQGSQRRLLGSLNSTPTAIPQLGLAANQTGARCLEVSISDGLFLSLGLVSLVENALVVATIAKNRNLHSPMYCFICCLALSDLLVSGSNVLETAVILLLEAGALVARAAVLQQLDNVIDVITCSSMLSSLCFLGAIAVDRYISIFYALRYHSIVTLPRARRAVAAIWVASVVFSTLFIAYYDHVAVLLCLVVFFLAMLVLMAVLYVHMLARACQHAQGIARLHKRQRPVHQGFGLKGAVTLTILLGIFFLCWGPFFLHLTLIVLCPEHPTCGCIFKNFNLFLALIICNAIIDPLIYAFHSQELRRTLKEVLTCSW
PROTOCOL TEXT: cell-based or functional assay

SUBSTANCE: Ac-Arg-c(Asp-His-D-Phe-Arg-Trp-Ala-Lys)-NH2 (peptide; unit assumed)
cAMP EC50 [nM]: 1.39
//
SUBSTANCE: Hydantoin(C(O)-(Arg-Gly))-c(Cys-Glu-His-D-Phe-Arg-Trp-Cys)-NH2 (peptide; unit assumed)
cAMP EC50 [nM]: 8.83
//
SUBSTANCE: Ac-Arg-c(Cys-D-Ala-His-D-2-Nal-Arg-Trp-Cys)-NH2 (peptide; unit assumed)
cAMP EC50 [nM]: 193
//
SUBSTANCE: Ac-2-Nal-Arg-c(Cys-D-Ala-His-D-Phe-Arg-Trp-Cys)-NH2 (peptide; unit assumed)
cAMP EC50 [nM]: 9.66

###

TARGET OR TEST SYSTEM: hMC3-R (human)
PROTOCOL TEXT: cell-based or functional assay

SUBSTANCE: Ac-Nle-c(Cys-D-Cha-His-D-Phe-Arg-Trp-Cys)-NH2 (peptide; unit assumed)
cAMP EC50, nM: 0.541
//
SUBSTANCE: Hydantoin(C(O)-(Leu-Nle))-c(Cys-D-Ala-His-D-Phe-Arg-Trp-Cys)-NH2 (peptide; unit assumed)
cAMP EC50, nM: 9.68
//
SUBSTANCE: Hydantoin(C(O)-(Nle-Gly))-c(Cys-D-Ala-His-D-Phe-Arg-Trp-Pen)-NH2 (peptide; unit assumed)
cAMP EC50, nM: 21.5
//
SUBSTANCE: Ac-Nle-c(Cys-D-Ala-His-D-Phe-Arg-Trp-Pen)-NH2 (peptide; unit assumed)
cAMP EC50, nM: 2.03

###

TARGET OR TEST SYSTEM: human melanocortin receptor subtype 1 (hMC1-R) (human) (UniProt Q01726)
Sequence (Q01726 whole entry): as above
PROTOCOL TEXT: [125I]-NDP-α-MSH competition, membranes
Catalogue of Ki readings, one per entry.
OBSERVABLE: Ki

SUBSTANCE: Hydantoin(C(O)-(D-Arg-Gly))-c(Cys-D-Ala-His-D-Phe-Arg-Trp-Cys)-NH2 (peptide)
OBSERVED: 3.52 nM
--
SUBSTANCE: Hydantoin(C(O)-(D-Ala-Nle))-c(Cys-D-Ala-His-D-Phe-Arg-Trp-Cys)-NH2 (peptide)
OBSERVED: 16 nM
--
SUBSTANCE: Hydantoin(C(O)-(D-Arg-Gly))-c(Cys-Glu-His-D-Phe-Arg-Trp-Cys)-NH2 (peptide)
OBSERVED: 9.49 nM
--
SUBSTANCE: Hydantoin(C(O)-(D-Ala-Gly))-c(Cys-D-Ala-His-D-Phe-Arg-Trp-Cys)-NH2 (peptide)
OBSERVED: 11.7 nM
--
SUBSTANCE: Hydantoin(C(O)-(Gly-D-Arg))-c(Cys-Glu-His-D-Phe-Arg-Trp-Cys)-NH2 (peptide)
OBSERVED: 4.3 nM

###

TARGET OR TEST SYSTEM: hMC3-R (human) (UniProt P41968)
Sequence (P41968 whole entry): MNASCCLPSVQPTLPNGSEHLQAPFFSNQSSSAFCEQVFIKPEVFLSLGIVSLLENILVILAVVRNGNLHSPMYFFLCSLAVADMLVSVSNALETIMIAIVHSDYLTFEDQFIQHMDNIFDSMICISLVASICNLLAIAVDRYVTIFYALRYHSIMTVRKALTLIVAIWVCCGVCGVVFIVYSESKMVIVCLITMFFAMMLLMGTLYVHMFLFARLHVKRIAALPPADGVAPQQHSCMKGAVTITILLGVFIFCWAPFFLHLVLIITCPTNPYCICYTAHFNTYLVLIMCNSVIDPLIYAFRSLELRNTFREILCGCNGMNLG
PROTOCOL TEXT: cell-based or functional assay
Bridge positions count the residues as written; N and C are the ends. Square brackets hold non-standard residues; d marks the D form. 1Nal = N[C@@H](Cc1cccc2ccccc12)C(=O)O; 2Nal = N[C@@H](Cc1ccc2ccccc2c1)C(=O)O; d2Nal = N[C@H](Cc1ccc2ccccc2c1)C(=O)O
Doc: threshold 70 (exclusive). Items with cAMP Kb beneath it return Fulfilled; others return Not fulfilled.

SUBSTANCE: Ac-CEH[d2Nal]R[2Nal]ACPPKD-NH2 (disulfide 1-8)
QUALITATIVE LABEL: Not fulfilled

SUBSTANCE: Nle-c(Asp-His-D-2-Nal-Arg-Trp-Lys)-β-Ala-Tyr-Gly-Arg-Lys-Lys-Arg-Arg-Gln-Arg-Arg-Arg-NH2 (peptide; in nM (unit assumed))
QUALITATIVE LABEL: Not fulfilled

SUBSTANCE: Ac-Nle-c(Asp-His-D-2-Nal-Arg-Trp-Lys)-β-Ala-β-Ala-Tyr-Gly-Arg-Lys-Lys-Arg-Arg-Gln-Arg-Arg-Arg-NH2 (peptide; in nM (unit assumed))
QUALITATIVE LABEL: Fulfilled

SUBSTANCE: Ac-Nle-c(Asp-His-D-2-Nal-Arg-Trp-Lys)-β-Ala-Tyr-Gly-Arg-Lys-Lys-Arg-Arg-Gln-Arg-Arg-Arg-NH2 (peptide; in nM (unit assumed))
QUALITATIVE LABEL: Not fulfilled

SUBSTANCE: Ac-CEH[d2Nal]R[1Nal]ACPPKD-NH2 (disulfide 1-8)
QUALITATIVE LABEL: Not fulfilled

###

TARGET OR TEST SYSTEM: hMC4-R (human)
PROTOCOL TEXT: cell-based or functional assay
Listed below: cAMP EC50 values for each entry.

SUBSTANCE: c[Hydantoin(C(O)-(Ile-Cys))-D-Ala-His-D-Phe-Arg-Trp-Cys]-NH2 (peptide; unit assumed)
TARGET OR TEST SYSTEM: hMC4-R (human)
cAMP EC50 [nM]: 1.85

SUBSTANCE: Ac-Nle-c(Cys-D-Ala-His-D-Phe-Arg-Trp-Cys)-NH2 (peptide; unit assumed)
TARGET OR TEST SYSTEM: hMC4-R (human)
cAMP EC50 [nM]: 0.078

SUBSTANCE: Hydantoin(C(O)-(D-Ala-Gly))-c(Cys-D-Ala-His-D-Phe-Arg-Trp-Cys)-NH2 (peptide; unit assumed)
TARGET OR TEST SYSTEM: hMC4-R (human)
cAMP EC50 [nM]: 0.309

SUBSTANCE: Ac-Nle-c(Asp-His-D-Phe-Arg-Trp-Gaba-Lys)-NH2 (peptide; unit assumed)
TARGET OR TEST SYSTEM: hMC4-R (human)
cAMP EC50 [nM]: 0.131

SUBSTANCE: Hydantoin(C(O)-(A6c-Nle))-c(Cys-D-Ala-His-D-Phe-Arg-Trp-Cys)-NH2 (peptide; unit assumed)
TARGET OR TEST SYSTEM: hMC4-R (human)
cAMP EC50 [nM]: 1.8

SUBSTANCE: Hydantoin(C(O)-(D-Ala-Nle))-c(Cys-D-Ala-His-D-Phe-Arg-Trp-Cys)-NH2 (peptide; unit assumed)
TARGET OR TEST SYSTEM: hMC4-R (human)
cAMP EC50 [nM]: 1.47

SUBSTANCE: Hydantoin(C(O)-(Gly-Gly))-c(Cys-Glu-His-D-Phe-Arg-Trp-Cys)-NH2 (peptide; unit assumed)
TARGET OR TEST SYSTEM: hMC4-R (human)
cAMP EC50 [nM]: 0.214

SUBSTANCE: Hydantoin(C(O)-(Gly-Arg))-c(Cys-D-Ala-His-D-Phe-Arg-Trp-Cys)-NH2 (peptide; unit assumed)
TARGET OR TEST SYSTEM: hMC4-R (human)
cAMP EC50 [nM]: 0.599

SUBSTANCE: Hydantoin(C(O)-(Nle-Gly))-c(Cys-D-Ala-His-D-Phe-Arg-Trp-Pen)-NH2 (peptide; unit assumed)
TARGET OR TEST SYSTEM: hMC4-R (human)
cAMP EC50 [nM]: 0.584

SUBSTANCE: Ac-Nle-c(Cys-D-Ala-His-D-Phe-Arg-Trp-Pen)-NH2 (peptide; unit assumed)
TARGET OR TEST SYSTEM: hMC4-R (human)
cAMP EC50 [nM]: 0.183

SUBSTANCE: Hydantoin(C(O)-(Leu-Nle))-c(Cys-D-Ala-His-D-Phe-Arg-Trp-Cys)-NH2 (peptide; unit assumed)
TARGET OR TEST SYSTEM: hMC4-R (human)
cAMP EC50 [nM]: 1.83

SUBSTANCE: Hydantoin(C(O)-(Nle-Gly))-c(Cys-Glu-His-D-Phe-Arg-Trp-Cys)-NH2 (peptide; unit assumed)
TARGET OR TEST SYSTEM: hMC4-R (human)
cAMP EC50 [nM]: 0.177

SUBSTANCE: Hydantoin(C(O)-(D-Arg-Gly))-c(Cys-D-Ala-His-D-Phe-Arg-Trp-Cys)-NH2 (peptide; unit assumed)
TARGET OR TEST SYSTEM: hMC4-R (human)
cAMP EC50 [nM]: 0.513

SUBSTANCE: Hydantoin(C(O)-(Val-Nle))-c(Cys-D-Ala-His-D-Phe-Arg-Trp-Cys)-NH2 (peptide; unit assumed)
TARGET OR TEST SYSTEM: hMC4-R (human)
cAMP EC50 [nM]: 0.977

SUBSTANCE: c[Hydantoin(C(O)-(Glu-D-Ala))-His-D-Phe-Arg-Trp-Lys]-NH2 (peptide; unit assumed)
TARGET OR TEST SYSTEM: hMC4-R (human)
cAMP EC50 [nM]: 3.62

SUBSTANCE: Hydantoin(C(O)-(Arg-Gly))-c(Cys-Glu-His-D-Phe-Arg-Trp-Cys)-NH2 (peptide; unit assumed)
TARGET OR TEST SYSTEM: hMC4-R (human)
cAMP EC50 [nM]: 0.0979

SUBSTANCE: Hydantoin(C(O)-(Gly-D-Arg))-c(Cys-D-Ala-His-D-Phe-Arg-Trp-Cys)-NH2 (peptide; unit assumed)
TARGET OR TEST SYSTEM: hMC4-R (human)
cAMP EC50 [nM]: 0.435

SUBSTANCE: Ac-D-Arg-c(Asp-His-D-Phe-Arg-Trp-Ala-Lys)-NH2 (peptide; unit assumed)
TARGET OR TEST SYSTEM: hMC4-R (human)
cAMP EC50 [nM]: 0.078

SUBSTANCE: Ac-1-Nal-Arg-c(Cys-D-Ala-His-D-Phe-Arg-Trp-Cys)-NH2 (peptide; unit assumed)
TARGET OR TEST SYSTEM: hMC4-R (human)
cAMP EC50 [nM]: 0.363

SUBSTANCE: Hydantoin(C(O)-(D-Arg-Gly))-c(Cys-Glu-His-D-Phe-Arg-Trp-Cys)-NH2 (peptide; unit assumed)
TARGET OR TEST SYSTEM: hMC4-R (human)
cAMP EC50 [nM]: 0.16

SUBSTANCE: Ac-Nle-c(Cys-D-Cha-His-D-Phe-Arg-Trp-Cys)-NH2 (peptide; unit assumed)
TARGET OR TEST SYSTEM: hMC4-R (human)
cAMP EC50 [nM]: 0.453

SUBSTANCE: Ac-2-Nal-Arg-c(Cys-D-Ala-His-D-Phe-Arg-Trp-Cys)-NH2 (peptide; unit assumed)
TARGET OR TEST SYSTEM: hMC4-R (human)
cAMP EC50 [nM]: 0.275
